Reported Postemergence herbicidal rating TRZAWR values for a set of compounds
Test system: TRZAWR Wheat, Winter, cv Riband
procedure.text: Postemergence herbicidal evaluation, TRZAWR
Format: in vivo, Triticum aestivum
Set-up: scale not given here
assay.setup: 0.032 kg/ha, postemergence spray, rated about two-three weeks after treatment

{"columns": ["compound.smiles", "Postemergence herbicidal rating TRZAWR"],
 "data": [
  ["CC(C)c1ccc(-n2nnc3cc(F)c(-n4c(=O)cc(C(F)(F)F)n(C)c4=O)cc32)cc1", 4.0],
  ["CCc1ccccc1-n1nnc2cc(F)c(-n3c(=O)cc(C(F)(F)F)n(C)c3=O)cc21", 3.0],
  ["Cc1ccc(-n2nnc3cc(F)c(-n4c(=O)cc(C(F)(F)F)n(C)c4=O)cc32)cc1", 4.0]
]}

* * *

System: ECHOG Barnyardgrass
procedure.text: Preemergence herbicidal evaluation, ECHOG
Format: in vivo, Echinochloa crus-galli, (L.) Beau
Parameters: scale not given here
assay.setup: preemergence, rate 0.032 kg/ha

{"columns": ["molecule", "target.desc", "ECHCG herbicidal rating"],
 "data": [
  ["Cc1ccc(O)cc1-n1nnc2cc(F)c(-n3c(=O)cc(C(F)(F)F)n(C)c3=O)cc21 [Example 32]", "ECHOG Barnyardgrass", 0.0],
  ["COC(=O)COc1ccccc1-n1nnc2cc(F)c(-n3c(=O)cc(C(F)(F)F)n(C)c3=O)cc21 [Example 35]", "ECHOG Barnyardgrass", 0.0],
  ["C#CCOC(=O)COc1ccc(C)cc1-n1nnc2cc(F)c(-n3c(=O)cc(C(F)(F)F)n(C)c3=O)cc21 [Example 40]", "ECHOG Barnyardgrass", 0.0],
  ["Cc1ccc(-n2nnc3cc(F)c(-n4c(=O)cc(C(F)(F)F)n(C)c4=O)cc32)cc1 [Example 19]", "ECHOG Barnyardgrass", 4.0]
]}

* * *

Test system: GLXMAW Soybean, Williams
procedure.text: Postemergence herbicidal evaluation, GLXMAW
Format: in vivo, Glycine max, (L.) Merr. cv Williams
Set-up: scale not given here
assay.setup: 0.016 kg/ha, postemergence spray, rated about two-three weeks after treatment
Reported Postemergence herbicidal rating GLXMAW values for a set of compounds
measure: Postemergence herbicidal rating GLXMAW

{"columns": ["compound", "numeric.readout"],
 "data": [
  ["COc1ccc(Cl)cc1-n1nnc2cc(F)c(-n3c(=O)cc(C(F)(F)F)n(C)c3=O)cc21", 6.5],
  ["C=CCOc1ccc(-n2nnc3cc(F)c(-n4c(=O)cc(C(F)(F)F)n(C)c4=O)cc32)c(C)c1", 5.0],
  ["Cc1ccccc1-n1nnc2cc(F)c(-n3c(=O)cc(C(F)(F)F)n(C)c3=O)cc21", 5.5],
  ["COC(=O)C(C)Oc1ccc(C)cc1-n1nnc2cc(F)c(-n3c(=O)cc(C(F)(F)F)n(C)c3=O)cc21 (stereo not shown)", 7.5]
]}

* * *

Test system: GLXMAW Soybean, Williams
procedure.text: Preemergence herbicidal evaluation, GLXMAW
Type: in vivo, Glycine max, (L.) Merr. cv Williams
Set-up: scale not given here
assay.setup: preemergence, rate 0.062 kg/ha
From the text: The preemergence herbicidal activity of the test compounds of the present invention is exemplified by the following tests in which the seeds of a variety of monocotyledonous and dicotyledonous plants are separately mixed with potting soil and planted on top of approximately one inch of soil in separate pint cups. […] The treated cups are then placed on greenhouse benches, watered and cared for in accordance with conventional greenhouse procedures. […]
measure: GLXMAW herbicidal rating

{"columns": ["compound", "result"],
 "data": [
  ["CCc1ccccc1-n1nnc2cc(F)c(-n3c(=O)cc(C(F)(F)F)n(C)c3=O)cc21 [Example 25]", 2.0],
  ["Cc1ccccc1-n1nnc2cc(F)c(-n3c(=O)cc(C(F)(F)F)n(C)c3=O)cc21 [Example 20]", 1.5],
  ["COC(=O)COc1ccccc1-n1nnc2cc(F)c(-n3c(=O)cc(C(F)(F)F)n(C)c3=O)cc21 [Example 35]", 1.5],
  ["CCc1cccc(-n2nnc3cc(F)c(-n4c(=O)cc(C(F)(F)F)n(C)c4=O)cc32)c1 [Example 29]", 4.0],
  ["Cc1ccc(-n2nnc3cc(F)c(-n4c(=O)cc(C(F)(F)F)n(C)c4=O)cc32)cc1C [Example 23]", 0.0],
  ["Cc1ccc(O)cc1-n1nnc2cc(F)c(-n3c(=O)cc(C(F)(F)F)n(C)c3=O)cc21 [Example 32]", 0.0],
  ["COC(=O)C(C)Oc1ccc(C)cc1-n1nnc2cc(F)c(-n3c(=O)cc(C(F)(F)F)n(C)c3=O)cc21 (stereo not shown) [Example 41]", 2.0],
  ["Cc1cc(O)ccc1-n1nnc2cc(F)c(-n3c(=O)cc(C(F)(F)F)n(C)c3=O)cc21 [Example 33]", 0.0],
  ["Cn1c(C(F)(F)F)cc(=O)n(-c2cc3c(cc2F)nnn3-c2ccc(OCC(=O)O)cc2)c1=O [Example 44]", 0.0],
  ["COc1ccc(C)c(-n2nnc3cc(F)c(-n4c(=O)cc(C(F)(F)F)n(C)c4=O)cc32)c1 [Example 22]", 0.0],
  ["CCc1ccc(-n2nnc3cc(F)c(-n4c(=O)cc(C(F)(F)F)n(C)c4=O)cc32)cc1COC [Example 28]", 0.0],
  ["COc1ccc(-n2nnc3cc(F)c(-n4c(=O)cc(C(F)(F)F)n(C)c4=O)cc32)cc1 [Example 27]", 5.0],
  ["Cc1ccc(-n2nnc3cc(F)c(-n4c(=O)cc(C(F)(F)F)n(C)c4=O)cc32)cc1 [Example 19]", 2.5],
  ["COCc1ccccc1-n1nnc2cc(F)c(-n3c(=O)cc(C(F)(F)F)n(C)c3=O)cc21 [Example 26]", 9.0],
  ["C=CCOc1ccc(C)cc1-n1nnc2cc(F)c(-n3c(=O)cc(C(F)(F)F)n(C)c3=O)cc21 [Example 42]", 3.0],
  ["COC(=O)COc1ccc(C)cc1-n1nnc2cc(F)c(-n3c(=O)cc(C(F)(F)F)n(C)c3=O)cc21 [Example 34]", 1.5]
]}
